target: cKit(D816V)(h) (Homo sapiens, UniProt P10721, D816V); construct: purchased Caliper Life Sciences; test: Other kinases, single-concentration inhibition (Table 3); type: biochemical; settings: 1 μM
Sequence (P10721 26-976 D816V): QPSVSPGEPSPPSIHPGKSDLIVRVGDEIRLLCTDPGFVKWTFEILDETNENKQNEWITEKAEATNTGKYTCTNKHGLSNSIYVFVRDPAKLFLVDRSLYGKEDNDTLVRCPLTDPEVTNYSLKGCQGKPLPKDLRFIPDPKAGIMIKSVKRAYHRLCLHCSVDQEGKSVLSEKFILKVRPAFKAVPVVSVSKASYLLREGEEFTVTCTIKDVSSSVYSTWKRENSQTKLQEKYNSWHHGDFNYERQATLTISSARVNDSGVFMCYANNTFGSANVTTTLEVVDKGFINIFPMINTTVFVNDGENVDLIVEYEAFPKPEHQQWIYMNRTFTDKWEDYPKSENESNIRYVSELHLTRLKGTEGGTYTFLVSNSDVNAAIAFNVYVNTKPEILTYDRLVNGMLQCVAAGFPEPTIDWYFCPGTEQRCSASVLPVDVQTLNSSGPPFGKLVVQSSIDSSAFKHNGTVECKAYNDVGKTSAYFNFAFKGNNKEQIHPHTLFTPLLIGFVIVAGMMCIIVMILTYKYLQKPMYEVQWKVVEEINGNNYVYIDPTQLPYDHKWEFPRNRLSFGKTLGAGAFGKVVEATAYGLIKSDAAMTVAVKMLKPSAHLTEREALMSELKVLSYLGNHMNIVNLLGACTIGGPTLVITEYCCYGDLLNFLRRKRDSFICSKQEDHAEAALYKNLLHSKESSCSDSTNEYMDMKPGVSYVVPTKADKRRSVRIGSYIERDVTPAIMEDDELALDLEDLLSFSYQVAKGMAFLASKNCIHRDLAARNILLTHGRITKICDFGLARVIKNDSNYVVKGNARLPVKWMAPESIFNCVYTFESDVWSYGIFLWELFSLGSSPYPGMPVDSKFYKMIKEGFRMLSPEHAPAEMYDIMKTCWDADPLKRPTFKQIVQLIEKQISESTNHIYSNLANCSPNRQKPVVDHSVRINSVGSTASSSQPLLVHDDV
For each of the molecules below, state its % inhibition cKit(D816V)(h).
Answers are plain numbers, in %.

Example entries and their recorded answers appear below.
CN1CCN(c2ccc3cc2NC(=O)CS[C@@H]2C[C@@H]4C[C@H]2[C@@H](Nc2nc(ncc2F)N3)[C@H]4C(N)=O)CC1 = 97
NC(=O)[C@H]1[C@H]2C[C@H]3[C@H]1Nc1nc(ncc1F)Nc1cccc(c1)C(=O)CS[C@@H]3C2 = 102
CC[C@@H]1C[C@@H]2/C=C\COc3cccc(c3)Nc3ncc(F)c(n3)N[C@H]2[C@H]1C(N)=O (single isomer, unassigned) = 96

Now for a further molecule.
Ask | So what's the measured % inhibition cKit(D816V)(h) for this one? NC(=O)[C@H]1[C@H]2C[C@H]3[C@H]1Nc1nc(ncc1F)Nc1cccc(c1)CSS[C@@H]3C2
Reply | 96

---

system: MiaPaca2; experiment: Cellular activity MiaPaca2; assay type: cell-based; conditions: MiaPaca2
pIC50: −log10 of the molar value.
endpointName: pIC50

Ask | Requested read-out: pIC50. Entry: NC(=O)[C@H]1[C@@H]2CC3CNC(=O)c4cccc(c4)Nc4ncc(F)c(n4)N[C@@H]1[C@@H]3C2 (stereo partly shown) [drawing 259]
Reply | 5.20 to 6.00

---

So I've got a bunch of compounds here, and I need their % inhibition EGFR(h) values.
target: EGFR(h) (Homo sapiens, UniProt P00533); construct: purchased Caliper Life Sciences; assay: Other kinases, single-concentration inhibition (Table 3); assay type: biochemical; details: 1 μM
Sequence (P00533 25-1210): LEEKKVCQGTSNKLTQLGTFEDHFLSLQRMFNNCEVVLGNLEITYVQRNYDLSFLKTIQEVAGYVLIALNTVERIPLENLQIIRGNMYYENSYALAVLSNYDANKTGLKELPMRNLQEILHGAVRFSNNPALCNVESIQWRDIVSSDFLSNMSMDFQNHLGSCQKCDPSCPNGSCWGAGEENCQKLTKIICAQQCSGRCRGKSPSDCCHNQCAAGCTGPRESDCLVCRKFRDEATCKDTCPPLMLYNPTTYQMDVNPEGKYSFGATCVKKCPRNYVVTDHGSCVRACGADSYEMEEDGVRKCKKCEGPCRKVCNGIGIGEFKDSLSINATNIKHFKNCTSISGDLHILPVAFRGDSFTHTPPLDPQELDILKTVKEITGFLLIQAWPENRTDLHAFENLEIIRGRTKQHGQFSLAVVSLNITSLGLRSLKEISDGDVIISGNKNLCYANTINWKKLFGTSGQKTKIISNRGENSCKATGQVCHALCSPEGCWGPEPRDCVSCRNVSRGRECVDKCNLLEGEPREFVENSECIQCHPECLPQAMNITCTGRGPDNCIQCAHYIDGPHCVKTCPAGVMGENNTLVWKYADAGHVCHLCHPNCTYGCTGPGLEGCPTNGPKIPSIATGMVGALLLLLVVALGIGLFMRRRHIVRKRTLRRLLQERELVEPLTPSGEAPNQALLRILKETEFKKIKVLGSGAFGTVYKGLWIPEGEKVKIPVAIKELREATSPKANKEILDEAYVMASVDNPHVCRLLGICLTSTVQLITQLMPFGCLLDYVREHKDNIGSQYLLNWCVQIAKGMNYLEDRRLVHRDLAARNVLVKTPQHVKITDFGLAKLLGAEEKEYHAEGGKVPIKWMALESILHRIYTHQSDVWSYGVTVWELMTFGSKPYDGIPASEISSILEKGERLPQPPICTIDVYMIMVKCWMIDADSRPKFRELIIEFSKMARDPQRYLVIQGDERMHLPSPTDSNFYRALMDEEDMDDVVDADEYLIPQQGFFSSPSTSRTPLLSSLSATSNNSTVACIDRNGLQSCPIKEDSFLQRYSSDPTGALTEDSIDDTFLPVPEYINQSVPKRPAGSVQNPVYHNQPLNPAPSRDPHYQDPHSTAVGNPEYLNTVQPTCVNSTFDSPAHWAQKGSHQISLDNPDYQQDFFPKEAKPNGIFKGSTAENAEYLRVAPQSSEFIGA
Answers are plain numbers, in %.

The examples below pair each entry with its known result.
NC(=O)[C@H]1[C@H]2C[C@H]3[C@H]1Nc1nc(ncc1F)Nc1cccc(c1)NC(=O)CS[C@@H]3C2 [Example 27] = 34
C=C[C@@H]1C[C@@H]2/C=C/COc3cccc(c3)Nc3ncc(F)c(n3)N[C@H]2[C@H]1C(N)=O (single isomer, unassigned) [Example 3] = 120

Now for the compound whose % inhibition EGFR(h) we want.
Ask | Item under review: N#Cc1ccc2cc1NC(=O)CS[C@@H]1C[C@@H]3C[C@H]1[C@@H](Nc1nc(ncc1F)N2)[C@H]3C(N)=O [Example 26] . Reported % inhibition EGFR(h)?
Reply | 57

---

For each entry below, report its Kinase Inhibition Profile (not incl. Aurora) # kinases hit/# kinases tested value.
target: kinases (not incl. Aurora); test: Kinase inhibition profile (not incl. Aurora); assay type: biochemical; settings: at 1 μM; hit means >79% inhibition

CN1CCN(c2ccc3cc2OCCS[C@@H]2C[C@@H]4C[C@H]2[C@@H](Nc2nc(ncc2F)N3)[C@H]4C(N)=O)CC1 [drawing 220] = 12/51 at 1 μM
NC(=O)[C@H]1[C@H]2C[C@H]3[C@H]1Nc1nc(ncc1F)Nc1cccc(c1)NC(=O)CS[C@@H]3C2 [drawing 221] = 12/36 at 1
NC(=O)[C@H]1[C@@H]2CC3CNC(=O)c4cccc(c4)Nc4ncc(F)c(n4)N[C@@H]1[C@@H]3C2 (some centres unmarked) [drawing 254] = 1/76 at 1 μM
C=CC1CC2/C=C\COc3cccc(c3)Nc3ncc(F)c(n3)N[C@H]2[C@H]1C(N)=O (some centres unmarked) = 0/36 at 1 uM
N#Cc1ccc2cc1NC(=O)CS[C@@H]1C[C@@H]3C[C@H]1[C@@H](Nc1nc(ncc1F)N2)[C@H]3C(N)=O [drawing 223] = 12/38 at 1 μM
NC(=O)[C@H]1[C@@H]2CC3CNCCc4cccc(c4)Nc4ncc(F)c(n4)N[C@@H]1[C@@H]3C2 (some centres unmarked) = 1/53 at 1 μM
CCC1CC2/C=C\COc3cccc(c3)Nc3ncc(F)c(n3)N[C@H]2[C@H]1C(N)=O (some centres unmarked) = 1/36 at 1 uM
CCC1CC2CCCOc3cccc(c3)Nc3ncc(F)c(n3)N[C@H]2[C@H]1C(N)=O (some centres unmarked) = 0/36 at 1 uM

Record Kinase Inhibition Profile (not incl. Aurora) # kinases hit/# kinases tested per entry; entries follow.
1. CN1CCN(c2ccc3cc2[C@@H](O)CS[C@@H]2C[C@@H]4C[C@H]2[C@@H](Nc2nc(ncc2F)N3)[C@H]4C(N)=O)CC1
2. CN1CCN(c2cc3cc(c2)C(=O)NC[C@@H]2C[C@@H]4C[C@H]2[C@@H](Nc2nc(ncc2F)N3)[C@H]4C(N)=O)CC1
3. CN1CCN(c2ccc3cc2CC(=O)NC[C@@H]2C[C@@H]4C[C@H]2[C@@H](Nc2nc(ncc2F)N3)[C@H]4C(N)=O)CC1

Reply |
121/267 at 1 μM
14/264 at 1 μM
0/73 at 1 μM
